TARGET OR TEST SYSTEM: human VAChT (Homo sapiens (Human), UniProt Q16572)
Sequence (Q16572 whole entry): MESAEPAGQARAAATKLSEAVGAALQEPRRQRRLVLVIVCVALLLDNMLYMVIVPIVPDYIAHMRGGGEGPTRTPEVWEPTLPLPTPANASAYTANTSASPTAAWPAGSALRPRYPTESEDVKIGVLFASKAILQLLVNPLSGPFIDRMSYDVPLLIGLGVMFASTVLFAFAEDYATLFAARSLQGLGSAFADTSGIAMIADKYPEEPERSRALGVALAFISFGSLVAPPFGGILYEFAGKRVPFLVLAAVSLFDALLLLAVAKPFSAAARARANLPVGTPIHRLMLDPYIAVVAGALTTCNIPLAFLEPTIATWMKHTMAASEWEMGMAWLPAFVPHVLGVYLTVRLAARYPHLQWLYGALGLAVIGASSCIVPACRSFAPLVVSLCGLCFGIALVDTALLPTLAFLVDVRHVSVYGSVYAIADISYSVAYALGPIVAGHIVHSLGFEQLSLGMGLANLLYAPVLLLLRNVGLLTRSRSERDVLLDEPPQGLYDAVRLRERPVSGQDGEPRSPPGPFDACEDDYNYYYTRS
METHOD DESCRIPTION: VAChT binding, competition against [3H]Vesamicol
CONDITION DESCRIPTION: Table 1; oxalate form; expressed human VAChT; mean ± SEM; read-out: Ki (nM) for VAChT
ENDPOINT LABEL: Ki (nM)

// below: answered compounds
Need Ki, item CSc1ccc(C(=O)C2CCN(C3Cc4ccccc4CC3O)CC2)cc1 (racemic) 2.4

Now try O=C(c1ccc(SCCF)cc1)C1CCN(C2Cc3ccccc3CC2O)CC1 (racemic) . 2.4

Now try O=C(c1ccc(SCCCF)cc1)C1CCN(C2Cc3ccccc3CC2O)CC1 (racemic) . 2.3

Now try CS(=O)(=O)c1ccc(C(=O)C2CCN(C3Cc4ccccc4CC3O)CC2)cc1 (racemic) . 5.4

Now try O=C(c1ccc(S(=O)(=O)NCCF)cc1)C1CCN(C2Cc3ccccc3CC2O)CC1 (centres unmarked) . 13

Now try C[S+]([O-])c1ccc(C(=O)C2CCN(C3Cc4ccccc4CC3O)CC2)cc1 (centres unmarked) . 6.5

A = O=C(c1ccc(S(=O)(=O)CCCF)cc1)C1CCN(C2Cc3ccccc3CC2O)CC1 (centres unmarked)
B = CNS(=O)(=O)c1ccc(C(=O)C2CCN(C3Cc4ccccc4CC3O)CC2)cc1 (centres unmarked)
Among A and B , whose measured Ki is the smaller figure? State the label of the item chosen. B
(B: 6.3 nM, A: 12.8 nM)

----------
TARGET OR TEST SYSTEM: σ1 receptor (Cavia porcellus (Guinea pig))
Sequence (Q60492 whole entry): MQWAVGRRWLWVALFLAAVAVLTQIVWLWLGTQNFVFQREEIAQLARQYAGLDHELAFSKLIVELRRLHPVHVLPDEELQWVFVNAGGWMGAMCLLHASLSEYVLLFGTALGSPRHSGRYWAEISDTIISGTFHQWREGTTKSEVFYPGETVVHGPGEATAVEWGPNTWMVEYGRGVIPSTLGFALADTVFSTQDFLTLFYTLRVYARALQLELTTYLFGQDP
METHOD DESCRIPTION: σ1 receptor binding, [3H](+)-Pentazocine
CONDITION DESCRIPTION: oxalate form; homogenates of guinea pig brain; mean ± SEM
ENDPOINT LABEL: Ki (nM)

// below: answered compounds
Need Ki, item CSc1ccc(C(=O)C2CCN([C@@H]3Cc4ccccc4C[C@H]3O)CC2)cc1 (single isomer, unassigned) [(+)-3] 23.3

Now try CS(=O)(=O)c1ccc(C(=O)C2CCN([C@@H]3Cc4ccccc4C[C@H]3O)CC2)cc1 (single isomer, unassigned) [(+)-2] . 18.5

A = CS(=O)(=O)c1ccc(C(=O)C2CCN(C3Cc4ccccc4CC3O)CC2)cc1 (racemic) [Compound 2]
B = O=C(c1ccc(SCCF)cc1)C1CCN(C2Cc3ccccc3CC2O)CC1 (single isomer, unassigned; (-)) [(−)-9a]
Among A and B , whose measured Ki is the smaller figure? State the label of the item chosen. A

----------
TARGET OR TEST SYSTEM: σ1 receptor (Cavia porcellus (Guinea pig))
METHOD DESCRIPTION: σ1 receptor binding, [3H](+)-Pentazocine
CONDITION DESCRIPTION: oxalate form; homogenates of guinea pig brain; mean ± SEM
ENDPOINT LABEL: Ki (nM)

// below: answered compounds
Need Ki, item O=C(c1ccc(SCCCF)cc1)C1CCN([C@@H]2Cc3ccccc3C[C@H]2O)CC1 (single isomer, unassigned) [(+)-9b] 38.6

Now try CSc1ccc(C(=O)C2CCN(C3Cc4ccccc4CC3O)CC2)cc1 (single isomer, unassigned; (-)) [(−)-3] . 19

a = O=C(c1ccc(SCCCF)cc1)C1CCN(C2Cc3ccccc3CC2O)CC1 (racemic) [Compound 9b]
b = CSc1ccc(C(=O)C2CCN(C3Cc4ccccc4CC3O)CC2)cc1 (racemic) [Compound 3]
c = O=C(c1ccc(SCCCF)cc1)C1CCN(C2Cc3ccccc3CC2O)CC1 (single isomer, unassigned; (-)) [(−)-9b]
With regard to Ki, arrange the entries in ascending order, please. Please, when replying, give the labels in the order that was requested. c, b, a

I = CS(=O)(=O)c1ccc(C(=O)C2CCN(C3Cc4ccccc4CC3O)CC2)cc1 (single isomer, unassigned; (-)) [(−)-2]
II = O=C(c1ccc(SCCF)cc1)C1CCN(C2Cc3ccccc3CC2O)CC1 (racemic) [Compound 9a]
Among I and II , whose measured Ki is the smaller figure? State the label of the item chosen. II

----------
TARGET OR TEST SYSTEM: σ2 receptor (Rattus norvegicus (Rat))
Sequence (Q5U3Y7 whole entry): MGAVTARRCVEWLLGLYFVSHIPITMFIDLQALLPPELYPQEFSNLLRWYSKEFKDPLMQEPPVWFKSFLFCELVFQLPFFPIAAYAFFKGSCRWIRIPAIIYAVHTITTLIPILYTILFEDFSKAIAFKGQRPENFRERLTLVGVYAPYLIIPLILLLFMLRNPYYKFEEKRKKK
METHOD DESCRIPTION: σ2 receptor binding, [3H]DTG
CONDITION DESCRIPTION: ratio of Ki values
ENDPOINT LABEL: Selectivity ratio VAChT/σ2

Need Selectivity ratio VAChT/σ2, item CSc1ccc(C(=O)C2CCN(C3Cc4ccccc4CC3O)CC2)cc1 (single isomer, unassigned; (-)) [(−)-3] >714

Now try CS(=O)(=O)c1ccc(C(=O)C2CCN(C3Cc4ccccc4CC3O)CC2)cc1 (single isomer, unassigned; (-)) [(−)-2] . >243

Now try CS(=O)(=O)c1ccc(C(=O)C2CCN([C@@H]3Cc4ccccc4C[C@H]3O)CC2)cc1 (single isomer, unassigned) [(+)-2] . >5

Others:
Need Selectivity ratio VAChT/σ2, item CSc1ccc(C(=O)C2CCN([C@@H]3Cc4ccccc4C[C@H]3O)CC2)cc1 (single isomer, unassigned) [(+)-3] >72

Now try CS(=O)(=O)c1ccc(C(=O)C2CCN(C3Cc4ccccc4CC3O)CC2)cc1 (racemic) [Compound 2] . >185
